# merged literature set: IC50 with UniProtKB Q96KQ7
# Sequence (Q96KQ7 whole entry): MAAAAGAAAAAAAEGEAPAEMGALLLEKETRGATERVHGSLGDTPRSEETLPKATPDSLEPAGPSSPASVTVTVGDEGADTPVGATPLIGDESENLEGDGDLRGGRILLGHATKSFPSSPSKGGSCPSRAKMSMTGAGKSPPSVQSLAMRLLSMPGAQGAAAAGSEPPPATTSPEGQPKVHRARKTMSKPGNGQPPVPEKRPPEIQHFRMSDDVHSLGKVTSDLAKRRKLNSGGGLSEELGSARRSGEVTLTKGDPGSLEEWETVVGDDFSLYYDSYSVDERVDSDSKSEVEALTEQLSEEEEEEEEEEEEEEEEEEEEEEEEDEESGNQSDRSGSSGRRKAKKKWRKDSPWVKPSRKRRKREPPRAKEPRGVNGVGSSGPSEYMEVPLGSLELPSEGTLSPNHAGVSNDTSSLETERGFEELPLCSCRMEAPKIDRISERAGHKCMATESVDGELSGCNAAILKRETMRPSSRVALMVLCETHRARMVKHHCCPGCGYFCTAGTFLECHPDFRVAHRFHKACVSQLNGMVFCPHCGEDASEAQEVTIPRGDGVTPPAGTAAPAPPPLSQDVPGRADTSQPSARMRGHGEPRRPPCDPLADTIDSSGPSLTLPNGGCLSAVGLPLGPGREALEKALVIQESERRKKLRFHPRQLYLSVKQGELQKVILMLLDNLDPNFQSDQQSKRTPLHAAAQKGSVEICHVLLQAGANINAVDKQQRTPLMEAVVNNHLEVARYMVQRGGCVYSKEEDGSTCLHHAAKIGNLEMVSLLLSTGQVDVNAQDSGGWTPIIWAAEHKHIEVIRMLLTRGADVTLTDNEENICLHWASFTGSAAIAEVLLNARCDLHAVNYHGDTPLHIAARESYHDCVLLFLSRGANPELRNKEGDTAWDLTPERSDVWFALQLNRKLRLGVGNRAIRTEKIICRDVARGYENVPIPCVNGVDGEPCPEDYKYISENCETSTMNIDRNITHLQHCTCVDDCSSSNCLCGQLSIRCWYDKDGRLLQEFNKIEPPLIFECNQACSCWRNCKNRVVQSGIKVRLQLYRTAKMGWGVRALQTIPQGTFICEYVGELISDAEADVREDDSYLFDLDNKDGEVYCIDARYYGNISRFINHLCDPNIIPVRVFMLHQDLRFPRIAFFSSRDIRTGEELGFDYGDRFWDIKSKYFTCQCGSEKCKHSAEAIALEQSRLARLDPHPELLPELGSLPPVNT
Value expressed in nM; do not type the unit.

Here is how some molecules turned out for IC50.
molecule: COc1cc2c(cc1OCCCC1CCCC1)N=C(N)C2(C)C
numeric.result: 12900
//
molecule: CNc1c2c(nc3cc(OCCCN4C5CCCC4CC5)c(OC)cc13)CCC2
numeric.result: 2690

Task: GET /values?readout=IC50&item= COc1cc2c(cc1OCCCN1CC(F)(F)C1)N=C(N)C21CCC1
Output: 1340

Task: Repeat with COc1cc2c(O)c3ccccc3nc2cc1OCCCN1CCCC1
Output: 42

Task: Entry to check: COc1cc2c(NC[C@H](C)OC)c3c(nc2cc1OCCCN1CCCC1)CCC3
Output: 22.4

Task: Would you kindly repeat that for COC[C@H](C)Nc1nccc2[nH]c3cc(OCCCN4CCCC4)c(OC)cc3c12 ?
Output: 6.5

Task: What do you get for COC[C@H](C)Nc1c2c(nc3cc(OCCCN4CCCC4)c(OC)cc13)CCCCC2 ?
Output: 214

Task: Another: COc1cc2c(cc1OCCCN1CCCC1)[nH]c1ccnc(F)c12
Output: 590

Task: Try CCCNc1c2c(nc3cc(OCCCN4CCCC4)c(OC(F)F)cc13)CCC2 next.
Output: 110

Task: Same lookup for COc1cc2c(NCCOC(C)C)c3c(nc2cc1OCCCN1CCCC1)CCC3 , please.
Output: 31.6

Task: Okay, and COc1cc2c(cc1OCCCN1CCCC1)[nH]c1ccnc(N3CCC(O)CC3)c12 ?
Output: 61

Task: Try this molecule too: COc1cc2c(NC[C@H]3CCOC3)c3c(nc2cc1OCCCN1CCCC1)CCC3
Output: 10

Task: Thanks! And COc1cc2c(NC[C@H]3CCCO3)c3c(nc2cc1OCCCN1CCCC1)CCC3 ?
Output: 21.9

Task: Also COc1cc2c(cc1OCCCN1CCCC1)N=C(N)C2(C)C , if possible.
Output: 0.9
